Recorded relative viability by entry
System: LC-2-ad
assay-overview: relative viability (nuclei count vs DMSO), 5 days (fraction); higher = more cells survive
condition-details: first compound 1.265 µM
Simply state the number, no unit and no words.

| compound | tgt | relative viability |
| --- | --- | --- |
| Cc1sc2c(c1C)C(c1ccc(Cl)cc1)=N[C@@H](CC(=O)OC(C)(C)C)c1nnc(C)n1-2 [JQ1] + CC(=O)Nc1cccc(-n2c(=O)n(C3CC3)c(=O)c3c(Nc4ccc(I)cc4F)n(C)c(=O)c(C)c32)c1 [Trametinib] (partner 0.02 µM) | LC-2-ad | 0.479 |
| Cc1sc2c(c1C)C(c1ccc(Cl)cc1)=N[C@@H](CC(=O)OC(C)(C)C)c1nnc(C)n1-2 [JQ1] + CS(=O)(=O)CCNCc1ccc(-c2ccc3ncnc(Nc4ccc(OCc5cccc(F)c5)c(Cl)c4)c3c2)o1 [Lapatinib] (partner 2 µM) | LC-2-ad | 0.158 |
| Cc1sc2c(c1C)C(c1ccc(Cl)cc1)=N[C@@H](CC(=O)OC(C)(C)C)c1nnc(C)n1-2 [JQ1] + COc1cc2c(Oc3ccc(NC(=O)C4(C(=O)Nc5ccc(F)cc5)CC4)cc3F)ccnc2cc1OCCCN1CCOCC1 [Foretinib] (partner 0.25 µM) | LC-2-ad | 0.359 |

We next turn to a different compound, shown below.
Input: Return relative viability measured with LC-2-ad given this compound: Cc1sc2c(c1C)C(c1ccc(Cl)cc1)=N[C@@H](CC(=O)OC(C)(C)C)c1nnc(C)n1-2 [JQ1] + C[C@]1(O)C[C@@H](c2nc(-c3ccc4ccc(-c5ccccc5)nc4c3)c3c(N)nccn32)C1 [Linsitinib] (partner 1 µM)
Output: 0.253

Value source: the supplement of paper PMC10307832
